- testedOn: furin, P09958
- Sequence (P09958 whole entry): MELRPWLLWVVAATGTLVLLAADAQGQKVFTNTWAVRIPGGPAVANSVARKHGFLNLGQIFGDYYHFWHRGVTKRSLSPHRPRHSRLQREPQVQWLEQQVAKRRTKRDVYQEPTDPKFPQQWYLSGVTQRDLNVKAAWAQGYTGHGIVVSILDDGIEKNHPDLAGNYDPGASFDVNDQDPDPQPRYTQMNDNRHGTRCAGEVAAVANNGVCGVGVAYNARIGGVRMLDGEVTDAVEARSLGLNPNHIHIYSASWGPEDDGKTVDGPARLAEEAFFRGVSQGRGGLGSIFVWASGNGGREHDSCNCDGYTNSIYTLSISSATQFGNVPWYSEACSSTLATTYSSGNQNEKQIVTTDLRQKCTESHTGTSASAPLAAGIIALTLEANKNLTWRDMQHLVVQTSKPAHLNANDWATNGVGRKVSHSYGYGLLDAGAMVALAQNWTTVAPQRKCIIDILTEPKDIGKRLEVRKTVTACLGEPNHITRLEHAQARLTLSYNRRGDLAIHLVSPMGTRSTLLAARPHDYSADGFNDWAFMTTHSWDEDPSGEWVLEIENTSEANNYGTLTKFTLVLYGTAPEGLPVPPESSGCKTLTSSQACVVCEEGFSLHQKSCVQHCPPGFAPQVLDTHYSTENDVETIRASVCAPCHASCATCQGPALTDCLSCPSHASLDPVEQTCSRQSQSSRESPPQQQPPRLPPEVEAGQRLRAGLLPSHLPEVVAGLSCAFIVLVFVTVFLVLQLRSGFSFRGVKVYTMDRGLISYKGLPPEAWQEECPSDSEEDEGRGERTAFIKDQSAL
- experimentNotes: furin cleavage Z-score vs untreated control; higher = more cleavage, active = 3.5 or more, inactive = 1 or less, 8 variable residues between constant flanks;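 also: purified furin at 1:10 enzyme:substrate in 50 mM HEPES pH 7.5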
- testConditions: 15 min
Some of the results follow. How many sequences the whole screen found active is unknown.
Outcome codes: true (1) = active, false (0) = inactive

# seq, assignedLabel
records = [
    ("CASADLVVRGAGNASASA [FS-89]", "false (0)"),
    ("CADVNRLKREAGNASASA [FS-648]", "true (1)"),
    ("CARRKRKKKHAGNASASA [FS-1777]", "false (0)"),
    ("CAIPSGFRRSAGNASASA [FS-339]", "false (0)"),
    ("CADVKFPGGGAGNASASA [HC171]", "false (0)"),
    ("CALLSRPLRGAGNASASA [FS-1229]", "false (0)"),
    ("CARVQRMAEHAGNASASA [FS-2841]", "true (1)"),
    ("CAREMRALACAGNASASA [FS-2917]", "false (0)"),
    ("CAHKHRSNRQAGNASASA [FS-1337]", "true (1)"),
    ("CANCGYRRCRAGNASASA [HC1507]", "false (0)"),
    ("CAPLNVRGGRAGNASASA [HC592]", "false (0)"),
    ("CASRSLSRRSAGNASASA [FS-1088]", "true (1)"),
    ("CAWRVDGIMHAGNASASA [HC1170]", "false (0)"),
    ("CAGGDIYHSVAGNASASA [HC1649]", "false (0)"),
    ("CALTVPASAYAGNASASA [HC253]", "false (0)"),
    ("CAVEMEECSQAGNASASA [HC1790]", "false (0)"),
    ("CAMEECSQHGAGNASASA [HC1776]", "false (0)"),
    ("CASHLRVKRGAGNASASA [FS-1280]", "true (1)"),
    ("CALPGIPFVSAGNASASA [HC1162]", "false (0)"),
    ("CAGGAYDIIIAGNASASA [HC814]", "false (0)"),
    ("CAPWNRKNRQAGNASASA [FS-1604]", "false (0)"),
    ("CAHFQRVKRGAGNASASA [FS-1335]", "true (1)"),
    ("CAAEECSQHLAGNASASA [HC1663]", "false (0)"),
    ("CARRKRYAIQAGNASASA [FU8]", "true (1)"),
    ("CALLSRKRRRAGNASASA [FS-1539]", "true (1)"),
    ("CAMEECSFHLAGNASASA [HC1727]", "false (0)"),
    ("CASRDRFRRSAGNASASA [FS-1282]", "true (1)"),
]
